Test system: OVCAR-8 ovarian
assay-text: NCI tumour cell line growth inhibition, 48 h
measurement-name: TGI

-- ask Consider the molecule shown here: CCOc1cc2c(cc1O)CC[C@@H]1[C@@H]2CC[C@]2(C)C(N)CC[C@@H]12 (some centres undefined) What is its recorded TGI?
-- reply 11.2 µM

-- ask Quick one: Cc1ccc(C(=O)Nc2ccc(CP(=O)(O)O)cc2CP(=O)(O)O)cc1NC(=O)c1cccc(NC(=O)Nc2cccc(C(=O)Nc3cc(C(=O)Nc4ccc(CP(=O)(O)O)cc4CP(=O)(O)O)ccc3C)c2)c1
-- reply > 100 µM

-- ask Quick one: Cc1c(Cl)c(S(N)(=O)=O)cc2c1NC=NS2(=O)=O
-- reply > 100 µM

-- ask Quick one: O=C(NNCc1ccco1)c1cc2ccccc2[nH]1
-- reply > 86.5 µM

###

Tested on: HCC-2998 colon
assay-text: NCI tumour cell line growth inhibition, 48 h
measurement-name: TGI

Solved entries (count: 5):
Cc1c(F)c(N)c2c(=O)cc(-c3ccc(N)c(F)c3)oc2c1F    > 100 µM
C=CC[C@@]1([C@H](C=C)COCc2ccc(OC)cc2)CC[C@]2(C)OC(C)(C)[C@@H](c3ccccc3)N2C1=S    > 100 µM
CNC(=O)CC1NC(=O)c2csc(n2)-c2ccc(-c3nc(C4=NC(C(=O)N5CCCC5C(N)=O)CO4)cs3)nc2-c2csc(n2)-c2csc(n2)C(C(C)C)NC(=O)CNC(=O)c2csc(n2)C(C(C)C)NC(=O)c2nc1sc2C (centres undefined)    2.31 µM
CC(=O)N(C(C)=O)n1c(-c2ccccc2)n[nH]c1=O    > 100 µM
O=c1nc(NC(c2ccccc2)(c2ccccc2)c2ccccc2)ccn1CCNCCn1ccc(NC(c2ccccc2)(c2ccccc2)c2ccccc2)nc1=O    17.1 µM

-- ask Consider the compound shown here: COc1c(Br)cc(/C=C(\C#N)c2cccnc2)cc1Br What is its recorded TGI?
-- reply > 100 µM

-- ask Quick one: COc1ccc(C(=O)/C=C/c2ccc3c(c2)OCO3)c(OCc2ccccc2)c1
-- reply > 100 µM

-- ask Quick one: C[n+]1ccc(Nc2ccc(NC(=O)c3ccc(Nc4cc[n+](C)c5ccc([N+](=O)[O-])cc45)cc3[N+](=O)[O-])cc2)cc1
-- reply > 100 µM

-- ask Quick one: O=C(O)c1cc(-c2ccncc2)nc2ccccc12
-- reply > 100 µM

###

System: UO-31 renal
assay-text: NCI tumour cell line growth inhibition, 48 h
measurement-name: TGI (µM)
Answer in µM, number only, no unit symbol.

Solved entries (count: 2):
COc1cccc2c1C(=O)c1c(O)c3c(c(O)c1C2=O)C[C@@](O)(C(=O)CO)C[C@@H]3O[C@H]1C[C@H](N)[C@@H](O)[C@H](C)O1    5.89
O=C(c1ccccc1)[C@@H]1C[C@H](Sc2ccccc2)c2cc(Cl)ccc2N1    56.7

-- ask Consider the compound shown here: NC(N)=N/N=C/c1c(-c2cc([N+](=O)[O-])c(Cl)cc2Cl)nc2sccn12 What is its recorded TGI?
-- reply 2.6

###

System: SNB-75 CNS
assay-text: NCI tumour cell line growth inhibition, 48 h
# TGI values compiled below
Answer in µM, number only, no unit symbol.

-- ask Consider the molecule shown here: CC(C)c1c(O)ccc2c1CCC1C(C)(C)CCCC21C (stereo unspecified) What is its recorded TGI?
-- reply 33.1

-- ask Quick one: CC(C)COCC(CN(Cc1ccccc1)c1ccccc1)N1CCCC1 (stereo unspecified)
-- reply 17.6

-- ask Quick one: COc1cc(NC(=O)CSc2nc3ccc(C)cc3c(=O)n2Cc2ccccc2)cc(OC)c1OC
-- reply 4.33

-- ask Quick one: Cc1cc(Cc2cc(C)cc(C(C)(C)C)c2O)c(O)c(Cc2cc(C)cc(C(C)(C)C)c2O)c1
-- reply 14.2

-- ask Quick one: CC1=NN(C(=O)CC(=O)NC(=O)CC(=O)Nc2ccccc2F)C(=O)C1N=Nc1ccc([N+](=O)[O-])cc1 (stereo unspecified)
-- reply 98.2
